# procedure_details: Volume of distribution at steady state in rat at 1 mg/kg, iv and 2 mg/kg, po
# Assay type: ADME, organism-based
# assay_conditions: in vivo, read-out: Vdss
measured_property: Vd (L/kg)

[[record]]
line_notation = "Cc1ccccc1[C@H]1[C@@H]2CN(C3=NC(=O)CO3)C[C@H]2CC[C@@H]1O[C@H](CO)c1cc(C(F)(F)F)cc(C(F)(F)F)c1"
reading_unit = "L/kg"
recorded_value = 3.1


---

# procedure_details: Half life in rat at 1 mg/kg, iv and 2 mg/kg, po
# Type: ADME, organism-based
# assay_conditions: in vivo
measured_property: half-life (h)

[[record]]
line_notation = "Cc1ccccc1[C@H]1[C@@H]2CN(C3=NC(=O)CO3)C[C@H]2CC[C@@H]1O[C@H](CO)c1cc(C(F)(F)F)cc(C(F)(F)F)c1"
measured_property = "half-life"
reading_unit = "h"
recorded_value = 4.7


---

# procedure_details: Volume of distribution at steady state in monkey at 0.5 mg/kg, iv and 1 mg/kg, po
# Type: ADME, organism-based, Macaca mulatta
# assay_conditions: rhesus monkey, in vivo, read-out: Vdss
measured_property: Vd

[[record]]
line_notation = "Cc1ccccc1[C@H]1[C@@H]2CN(C3=NC(=O)CO3)C[C@H]2CC[C@@H]1O[C@H](CO)c1cc(C(F)(F)F)cc(C(F)(F)F)c1"
recorded_value = "5.7 L/kg"


---

# target_entity: Cytochrome P450 2C9 (Homo sapiens)
# Sequence (P11712 whole entry): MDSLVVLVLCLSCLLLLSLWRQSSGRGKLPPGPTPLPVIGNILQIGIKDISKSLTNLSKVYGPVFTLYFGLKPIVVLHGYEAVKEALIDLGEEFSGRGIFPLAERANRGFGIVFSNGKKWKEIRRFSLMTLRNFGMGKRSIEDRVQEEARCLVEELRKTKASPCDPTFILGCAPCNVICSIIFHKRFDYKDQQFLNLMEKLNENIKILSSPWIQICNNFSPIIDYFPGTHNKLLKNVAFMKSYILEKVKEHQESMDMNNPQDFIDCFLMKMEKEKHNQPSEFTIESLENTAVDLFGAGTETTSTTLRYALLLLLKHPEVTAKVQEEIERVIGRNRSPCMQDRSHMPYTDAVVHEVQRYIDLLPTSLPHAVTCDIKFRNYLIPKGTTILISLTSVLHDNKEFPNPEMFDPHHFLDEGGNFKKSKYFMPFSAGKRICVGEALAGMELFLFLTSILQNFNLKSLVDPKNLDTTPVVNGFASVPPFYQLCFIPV
measured_property: IC50 (µM)

[[record]]
line_notation = "Cc1ccccc1[C@H]1[C@@H]2CN(C3=NC(=O)CO3)C[C@H]2CC[C@@H]1O[C@H](CO)c1cc(C(F)(F)F)cc(C(F)(F)F)c1"
measured_property = "IC50"
reading_unit = "µM"
recorded_value = 41


---

# procedure_details: Plasma clearance in dog at 0.5 mg/kg, iv and 1 mg/kg, po
# Format: ADME, organism-based, Canis lupus familiaris
measured_property: clearance

[[record]]
line_notation = "Cc1ccccc1[C@H]1[C@@H]2CN(C3=NC(=O)CO3)C[C@H]2CC[C@@H]1O[C@H](CO)c1cc(C(F)(F)F)cc(C(F)(F)F)c1"
recorded_value = "1.4 mL/min/kg"


---

# target_entity: Cytochrome P450 3A4 (Homo sapiens, UniProt P08684)
# Sequence (P08684 whole entry): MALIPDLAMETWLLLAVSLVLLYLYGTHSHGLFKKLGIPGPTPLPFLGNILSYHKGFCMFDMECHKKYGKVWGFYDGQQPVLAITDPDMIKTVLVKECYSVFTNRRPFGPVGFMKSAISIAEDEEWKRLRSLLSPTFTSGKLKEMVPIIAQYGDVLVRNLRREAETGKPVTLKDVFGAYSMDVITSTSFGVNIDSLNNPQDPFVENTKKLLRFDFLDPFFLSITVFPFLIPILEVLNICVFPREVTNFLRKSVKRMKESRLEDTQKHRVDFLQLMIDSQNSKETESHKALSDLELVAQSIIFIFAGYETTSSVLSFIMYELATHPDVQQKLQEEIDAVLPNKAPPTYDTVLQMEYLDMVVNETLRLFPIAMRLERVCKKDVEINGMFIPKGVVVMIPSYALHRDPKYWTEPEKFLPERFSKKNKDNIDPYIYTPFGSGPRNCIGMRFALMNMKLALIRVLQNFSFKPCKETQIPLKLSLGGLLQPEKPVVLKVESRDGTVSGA
measured_property: IC50

[[record]]
line_notation = "Cc1ccccc1[C@H]1[C@@H]2CN(C3=NC(=O)CO3)C[C@H]2CC[C@@H]1O[C@H](CO)c1cc(C(F)(F)F)cc(C(F)(F)F)c1"
measured_property = "IC50"
recorded_value = "15 µM"


---

# target_entity: Substance-P receptor (Homo sapiens, UniProt P25103)
# Sequence (P25103 whole entry): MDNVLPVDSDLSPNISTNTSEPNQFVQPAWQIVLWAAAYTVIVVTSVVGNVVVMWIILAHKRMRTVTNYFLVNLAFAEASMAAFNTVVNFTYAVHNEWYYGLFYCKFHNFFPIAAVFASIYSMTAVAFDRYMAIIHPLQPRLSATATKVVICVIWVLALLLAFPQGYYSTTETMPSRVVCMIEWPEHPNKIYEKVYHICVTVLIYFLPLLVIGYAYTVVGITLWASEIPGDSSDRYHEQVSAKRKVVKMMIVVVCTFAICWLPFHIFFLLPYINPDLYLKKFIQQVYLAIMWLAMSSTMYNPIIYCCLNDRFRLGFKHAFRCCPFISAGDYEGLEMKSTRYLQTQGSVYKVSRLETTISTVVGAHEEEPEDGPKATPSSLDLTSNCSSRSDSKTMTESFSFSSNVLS
# procedure_details: Displacement of [125I]substance P from human NK1 receptor expressed in CHO cells in presence of human serum
pIC50: −log10 of the molar value.
measured_property: pIC50

[[record]]
line_notation = "Cc1ccccc1[C@H]1[C@@H]2CN(C3=NC(=O)CO3)C[C@H]2CC[C@@H]1O[C@H](CO)c1cc(C(F)(F)F)cc(C(F)(F)F)c1"
recorded_value = 9.12


---

# procedure_details: Half life in monkey at 0.5 mg/kg, iv and 1 mg/kg, po
# Assay type: ADME, organism-based, Macaca mulatta
# assay_conditions: rhesus monkey, in vivo
measured_property: half-life (min)

[[record]]
line_notation = "Cc1ccccc1[C@H]1[C@@H]2CN(C3=NC(=O)CO3)C[C@H]2CC[C@@H]1O[C@H](CO)c1cc(C(F)(F)F)cc(C(F)(F)F)c1"
recorded_value = 780


---

# procedure_details: Volume of distribution at steady state in dog at 0.5 mg/kg, iv and 1 mg/kg, po
# Format: ADME, organism-based, Canis lupus familiaris
# assay_conditions: in vivo, read-out: Vdss
measured_property: Vd (L/kg)

[[record]]
line_notation = "Cc1ccccc1[C@H]1[C@@H]2CN(C3=NC(=O)CO3)C[C@H]2CC[C@@H]1O[C@H](CO)c1cc(C(F)(F)F)cc(C(F)(F)F)c1"
recorded_value = 1.2


---

# procedure_details: Metabolic stability in human hepatocytes assessed as compound remaining at 1 uM after 24 hrs
# Format: ADME, cell-based, Hepatocyte
# assay_conditions: read-out: Stability
measured_property: remaining at 24 h, 1 µM (%)

[[record]]
line_notation = "Cc1ccccc1[C@H]1[C@@H]2CN(C3=NC(=O)CO3)C[C@H]2CC[C@@H]1O[C@H](CO)c1cc(C(F)(F)F)cc(C(F)(F)F)c1"
measured_property = "remaining at 24 h, 1 µM"
recorded_value = 68


---

# procedure_details: Half life in dog at 0.5 mg/kg, iv and 1 mg/kg, po
# Assay type: ADME, organism-based, Canis lupus familiaris
# assay_conditions: in vivo
measured_property: half-life (h)

[[record]]
line_notation = "Cc1ccccc1[C@H]1[C@@H]2CN(C3=NC(=O)CO3)C[C@H]2CC[C@@H]1O[C@H](CO)c1cc(C(F)(F)F)cc(C(F)(F)F)c1"
recorded_value = 11


---

# procedure_details: Oral bioavailability in dog 1 mg/kg
# Format: ADME, organism-based, Canis lupus familiaris
# assay_conditions: in vivo
measured_property: bioavailability (%)

[[record]]
line_notation = "Cc1ccccc1[C@H]1[C@@H]2CN(C3=NC(=O)CO3)C[C@H]2CC[C@@H]1O[C@H](CO)c1cc(C(F)(F)F)cc(C(F)(F)F)c1"
recorded_value = 38


---

# procedure_details: Oral bioavailability in rat at 2 mg/kg
# Type: ADME, organism-based
# assay_conditions: in vivo
Each entry below carries its recorded bioavailability.
measured_property: bioavailability (%)

[[record]]
line_notation = "Cc1ccccc1[C@H]1[C@@H]2CN(C3=NC(=O)CO3)C[C@H]2CC[C@@H]1O[C@H](CO)c1cc(C(F)(F)F)cc(C(F)(F)F)c1"
recorded_value = 92

[[record]]
line_notation = "C[C@@H](O[C@H]1CC[C@@H]2CN(C3=CC(=O)CC3)C[C@H]2[C@@H]1c1ccc(F)cc1)c1cc(C(F)(F)F)cc(C(F)(F)F)c1"
recorded_value = 40

